For each entry below, report its Hemolysis value.
Species on record: Homo sapiens
TEST_NAME: Hemolysis of human erythrocyte at 64 uM
Assay type: ADME
Peptide text beside a SMILES is read from it.
Entry rule: numbers only, all in %.

Answer with the recorded Hemolysis for the compound listed here: CC[C@H](C)[C@H](NC(=O)[C@H](CCCCN)NC(=O)[C@H](CCCCN)NC(=O)[C@H](Cc1ccccc1)NC(=O)[C@H](CCCCN)NC(=O)[C@H](CCCCN)NC(=O)[C@H](Cc1c[nH]c2ccccc12)NC(=O)[C@H](CCCCN)NC(C)=O)C(=O)NCC(=O)N[C@@H](CCCCN)C(=O)N[C@H](C(=O)N[C@@H](CC(C)C)C(=O)N[C@@H](CCCCN)C(=O)N[C@H](C(=O)N[C@@H](CC(C)C)C(N)=O)C(C)C)C(C)C (Ac-KWKKFKKIGKVLKVL-NH2)
9

Report measured Hemolysis; entry is CC[C@H](C)[C@H](NC(=O)[C@H](CCCCN)NC(=O)[C@H](CCCCN)NC(=O)[C@H](Cc1ccccc1)NC(=O)[C@H](CCCCN)NC(=O)[C@H](CCCCN)NC(=O)[C@H](Cc1c[nH]c2ccccc12)NC(=O)[C@H](CCCCN)NC(C)=O)C(=O)NCC(=O)N[C@@H](C)C(=O)N[C@H](C(=O)N[C@@H](CC(C)C)C(=O)N[C@@H](CCCCN)C(=O)N[C@@H](CCCCN)C(=O)N[C@@H](CC(C)C)C(N)=O)C(C)C (Ac-KWKKFKKIGAVLKKL-NH2)
3

Look up Hemolysis of CC[C@H](C)[C@H](NC(=O)[C@H](CCCCN)NC(=O)[C@H](CCCCN)NC(=O)[C@H](Cc1ccccc1)NC(=O)[C@H](CC(C)C)NC(=O)[C@H](CCCCN)NC(=O)[C@H](Cc1c[nH]c2ccccc12)NC(=O)[C@H](CCCCN)NC(C)=O)C(=O)NCC(=O)N[C@@H](C)C(=O)N[C@H](C(=O)N[C@@H](CC(C)C)C(=O)N[C@@H](CCCCN)C(=O)N[C@H](C(=O)N[C@@H](CC(C)C)C(N)=O)C(C)C)C(C)C (Ac-KWKLFKKIGAVLKVL-NH2) and report it.
45

====

Test system: Staphylococcus epidermidis
TEST_NAME: Antimicrobial activity against Staphylococcus epidermidis
Format: functional
Peptide text beside a SMILES is read from it.
MEASUREMENT_NAME: MIC (µM)
Please respond with the number in µM and leave the unit unwritten.

Give the measured MIC for CC[C@H](C)[C@H](NC(=O)[C@H](CCCCN)NC(=O)[C@H](CCCCN)NC(=O)[C@H](Cc1ccccc1)NC(=O)[C@H](CCCCN)NC(=O)[C@H](CCCCN)NC(=O)[C@H](Cc1c[nH]c2ccccc12)NC(=O)[C@H](CCCCN)NC(C)=O)C(=O)NCC(=O)N[C@@H](C)C(=O)N[C@H](C(=O)N[C@@H](CC(C)C)C(=O)N[C@@H](CCCCN)C(=O)N[C@@H](CCCCN)C(=O)N[C@@H](CC(C)C)C(N)=O)C(C)C (Ac-KWKKFKKIGAVLKKL-NH2)
0.5

Note MIC for the compound shown: CC[C@H](C)[C@H](NC(=O)[C@H](CCCCN)NC(=O)[C@H](CCCCN)NC(=O)[C@H](Cc1ccccc1)NC(=O)[C@H](CC(C)C)NC(=O)[C@H](CCCCN)NC(=O)[C@H](Cc1c[nH]c2ccccc12)NC(=O)[C@H](CCCCN)NC(C)=O)C(=O)NCC(=O)N[C@@H](C)C(=O)N[C@H](C(=O)N[C@@H](CC(C)C)C(=O)N[C@@H](CCCCN)C(=O)N[C@H](C(=O)N[C@@H](CC(C)C)C(N)=O)C(C)C)C(C)C (Ac-KWKLFKKIGAVLKVL-NH2)
0.5

Identify measured MIC associated with CC[C@H](C)[C@H](NC(=O)[C@H](CCCCN)NC(=O)[C@H](CCCCN)NC(=O)[C@H](Cc1ccccc1)NC(=O)[C@H](CCCCN)NC(=O)[C@H](CCCCN)NC(=O)[C@H](Cc1c[nH]c2ccccc12)NC(=O)[C@H](CCCCN)NC(C)=O)C(=O)NCC(=O)N[C@@H](C)C(=O)N[C@H](C(=O)N[C@@H](CC(C)C)C(=O)N[C@@H](CCCCN)C(=O)N[C@H](C(=O)N[C@@H](CC(C)C)C(N)=O)C(C)C)C(C)C (Ac-KWKKFKKIGAVLKVL-NH2)
0.5

For the compound CC[C@H](C)[C@H](NC(=O)[C@H](CCCCN)NC(=O)[C@H](CCCCN)NC(=O)[C@H](Cc1ccccc1)NC(=O)[C@H](CC(C)C)NC(=O)[C@H](CCCCN)NC(=O)[C@H](Cc1c[nH]c2ccccc12)NC(=O)[C@H](CCCCN)NC(C)=O)C(=O)NCC(=O)N[C@@H](CCCCN)C(=O)N[C@H](C(=O)N[C@@H](CC(C)C)C(=O)N[C@@H](CCCCN)C(=O)N[C@@H](CCCCN)C(=O)N[C@@H](CC(C)C)C(N)=O)C(C)C (Ac-KWKLFKKIGKVLKKL-NH2) , give its measured MIC value.
0.25

Give me measured MIC, please, for this compound: CC[C@H](C)[C@H](NC(=O)[C@H](CCCCN)NC(=O)[C@H](CCCCN)NC(=O)[C@H](Cc1ccccc1)NC(=O)[C@H](CCCCN)NC(=O)[C@H](CCCCN)NC(=O)[C@H](Cc1c[nH]c2ccccc12)NC(=O)[C@H](CCCCN)NC(C)=O)C(=O)NCC(=O)N[C@@H](CCCCN)C(=O)N[C@H](C(=O)N[C@@H](CC(C)C)C(=O)N[C@@H](CCCCN)C(=O)N[C@H](C(=O)N[C@@H](CC(C)C)C(N)=O)C(C)C)C(C)C (Ac-KWKKFKKIGKVLKVL-NH2)
0.25

Hello, please tell me recorded MIC for this one: CC[C@H](C)[C@H](NC(=O)[C@H](CCCCN)NC(=O)[C@H](CCCCN)NC(=O)[C@H](Cc1ccccc1)NC(=O)[C@H](CC(C)C)NC(=O)[C@H](CCCCN)NC(=O)[C@H](Cc1c[nH]c2ccccc12)NC(=O)[C@H](CCCCN)NC(C)=O)C(=O)NCC(=O)N[C@@H](C)C(=O)N[C@H](C(=O)N[C@@H](CC(C)C)C(=O)N[C@@H](CCCCN)C(=O)N[C@@H](CCCCN)C(=O)N[C@@H](CC(C)C)C(N)=O)C(C)C (Ac-KWKLFKKIGAVLKKL-NH2)
0.25
